- tgt: glucocorticoid receptor (GR) (Homo sapiens)
- Sequence (P04150 whole entry): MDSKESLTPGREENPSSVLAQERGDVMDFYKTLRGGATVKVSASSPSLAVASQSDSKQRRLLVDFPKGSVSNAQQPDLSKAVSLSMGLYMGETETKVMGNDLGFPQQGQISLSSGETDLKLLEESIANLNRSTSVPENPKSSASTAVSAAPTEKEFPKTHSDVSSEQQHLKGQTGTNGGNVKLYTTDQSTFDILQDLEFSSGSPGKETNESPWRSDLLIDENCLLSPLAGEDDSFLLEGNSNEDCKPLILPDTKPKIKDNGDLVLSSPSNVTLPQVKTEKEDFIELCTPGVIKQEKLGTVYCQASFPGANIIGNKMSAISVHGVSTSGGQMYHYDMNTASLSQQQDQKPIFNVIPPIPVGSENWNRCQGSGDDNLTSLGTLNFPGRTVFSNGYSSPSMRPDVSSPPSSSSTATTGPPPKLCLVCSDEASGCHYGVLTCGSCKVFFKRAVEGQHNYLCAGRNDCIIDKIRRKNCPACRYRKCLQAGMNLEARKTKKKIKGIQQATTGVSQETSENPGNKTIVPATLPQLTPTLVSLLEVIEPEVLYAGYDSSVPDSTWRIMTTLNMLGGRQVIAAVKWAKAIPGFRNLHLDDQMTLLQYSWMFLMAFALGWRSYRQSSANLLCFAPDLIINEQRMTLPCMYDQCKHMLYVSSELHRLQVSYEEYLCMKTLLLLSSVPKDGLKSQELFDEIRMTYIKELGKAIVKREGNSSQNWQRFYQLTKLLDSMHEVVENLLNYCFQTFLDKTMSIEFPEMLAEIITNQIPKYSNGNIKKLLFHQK
- test method notes: PathHunter GR translocation EFC assay, agonist mode, chemiluminescent detection
- conditions: CHO-EA+GR-PL (PathHunter) cells, agonist 3 hours, plate read after 60 minutes, FIG. 1
reported metric: EC50

[
  {
    "smiles code": "C[C@]12C=CC(=O)C=C1CC[C@H]1[C@@H]3C[C@@H](O)[C@](O)(C(=O)CO)[C@@]3(C)C[C@H](O)[C@@]12F",
    "tgt": "glucocorticoid receptor (GR) (Homo sapiens)",
    "reported metric": "EC50",
    "result value": "0.0629 µM"
  }
]

====

- tgt: glucocorticoid receptor (GR)
- test method notes: PathHunter GR translocation EFC assay, antagonist mode (pre-incubation before agonist)
- Type: cell-based, human
- conditions: pre-incubated 1 hour, then 1 μM prednisolone as agonist for 3 hours
reported metric: IC50 (nM)

[
  {
    "smiles code": "COC1=C2C[C@@H](C)C[C@H](OC)[C@H](O)[C@@H](C)/C=C(\\C)[C@H](OC(N)=O)[C@@H](OC)/C=C\\C=C(/C)C(=O)NC(=CC1=O)C2=O",
    "tgt": "glucocorticoid receptor (GR)",
    "unit string": "nM",
    "result value": 22.3
  }
]
